These measurements were taken from patent US20060004029A1.

# assayed.system: VEGFR2 (Homo sapiens, UniProt P35968)
# Construct: coding for the cytoplasmic domain, beginning with lysine 791 and including the termination codon; made in house; host or cells: Sf9 insect cells, baculovirus (pFastBacHis)
# Sequence (P35968 786-1356 limits assumed): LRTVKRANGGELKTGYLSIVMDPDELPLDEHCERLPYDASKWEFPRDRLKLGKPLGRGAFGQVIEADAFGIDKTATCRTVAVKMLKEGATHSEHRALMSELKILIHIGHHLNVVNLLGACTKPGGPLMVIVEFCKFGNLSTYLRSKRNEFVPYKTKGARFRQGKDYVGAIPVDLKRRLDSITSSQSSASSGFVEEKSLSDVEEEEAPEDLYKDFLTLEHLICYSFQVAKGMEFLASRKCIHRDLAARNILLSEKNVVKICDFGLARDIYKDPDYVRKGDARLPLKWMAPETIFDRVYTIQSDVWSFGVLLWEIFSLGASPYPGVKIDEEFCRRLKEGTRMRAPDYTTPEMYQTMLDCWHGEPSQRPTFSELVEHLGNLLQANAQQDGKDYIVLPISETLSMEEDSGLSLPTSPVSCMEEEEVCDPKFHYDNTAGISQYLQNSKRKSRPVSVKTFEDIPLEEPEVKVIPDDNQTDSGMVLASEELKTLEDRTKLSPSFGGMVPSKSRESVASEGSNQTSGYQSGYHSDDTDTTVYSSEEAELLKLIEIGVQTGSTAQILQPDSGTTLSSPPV
# test: Inhibition against receptor tyrosine kinase activity (HTRF), VEGFR2
# Type: biochemical
# condition.parameters: His6-VEGFR2 cytoplasmic domain, biotin-poly(GT), HTRF; read-out: VEGFR2 kinase IC50
pIC50: −log10 of the molar value.
Answer false if pIC50 is under 8, and true if it is 8 or more.

| smiles.repr | answer.label |
| --- | --- |
| CCN(CC)C(=O)Nc1cc(Oc2ccc3c(ccn3C(=O)NC)c2)ccn1 | false |
| CNC(=O)n1ccc2cc(Oc3ccnc(NC(=O)NCCCS(C)(=O)=O)c3)ccc21 | true |
| CNC(=O)n1ccc2cc(Oc3ccnc(NC(=O)N[C@@H](CO)C(=O)N4CCCC4)c3)ccc21 | true |
| CNC(=O)CCCNC(=O)Nc1cc(Oc2ccc3c(ccn3C(=O)NC)c2)ccn1 | true |
| CNC(=O)n1ccc2cc(Oc3ccnc(NC(=O)NCC(N)=O)c3)ccc21 | true |
